Sourced from patent US7521570B2

# system-name: human OAT4 (human organic anion transporter 4) (Homo sapiens, UniProt Q9NSA0)
# Sequence (Q9NSA0 1-550): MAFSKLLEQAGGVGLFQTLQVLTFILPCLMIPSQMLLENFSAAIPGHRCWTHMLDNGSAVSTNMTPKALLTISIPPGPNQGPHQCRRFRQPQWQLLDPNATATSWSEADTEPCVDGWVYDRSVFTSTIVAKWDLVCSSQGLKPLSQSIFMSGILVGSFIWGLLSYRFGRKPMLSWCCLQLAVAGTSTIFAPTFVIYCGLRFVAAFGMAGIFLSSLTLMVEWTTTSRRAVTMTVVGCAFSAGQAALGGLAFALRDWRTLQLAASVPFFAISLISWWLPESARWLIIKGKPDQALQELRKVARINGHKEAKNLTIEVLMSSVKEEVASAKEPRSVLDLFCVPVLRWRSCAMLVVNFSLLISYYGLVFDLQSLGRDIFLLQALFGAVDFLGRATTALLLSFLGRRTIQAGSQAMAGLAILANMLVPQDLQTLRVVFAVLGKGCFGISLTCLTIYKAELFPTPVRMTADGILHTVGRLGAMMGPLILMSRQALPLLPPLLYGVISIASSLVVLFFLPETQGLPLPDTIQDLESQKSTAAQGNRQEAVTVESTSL
# test: Inhibition of 3H-estrone sulfate uptake by OAT4 in S2 cells
# run-parameters: S2 cells expressing OAT4
Kindly supply the reported IC50 values for the records listed here.
I'd appreciate it if you wrote the number followed by its unit.

[in] Given CCc1oc2ccccc2c1C(=O)c1cc(Br)c(O)c(Br)c1 [benzbromarone] , respond with its IC50.
[out] 5.4 µM

[in] Given CCc1oc2cc(O)ccc2c1C(=O)c1cc(Br)c(O)c(Br)c1 [6-hydroxybenzbromarone] , respond with its IC50.
[out] 3.2 µM

====

# system-name: URAT1 (Homo sapiens)
# Construct: expressed in transfected cells
# Sequence (Q96S37 whole entry): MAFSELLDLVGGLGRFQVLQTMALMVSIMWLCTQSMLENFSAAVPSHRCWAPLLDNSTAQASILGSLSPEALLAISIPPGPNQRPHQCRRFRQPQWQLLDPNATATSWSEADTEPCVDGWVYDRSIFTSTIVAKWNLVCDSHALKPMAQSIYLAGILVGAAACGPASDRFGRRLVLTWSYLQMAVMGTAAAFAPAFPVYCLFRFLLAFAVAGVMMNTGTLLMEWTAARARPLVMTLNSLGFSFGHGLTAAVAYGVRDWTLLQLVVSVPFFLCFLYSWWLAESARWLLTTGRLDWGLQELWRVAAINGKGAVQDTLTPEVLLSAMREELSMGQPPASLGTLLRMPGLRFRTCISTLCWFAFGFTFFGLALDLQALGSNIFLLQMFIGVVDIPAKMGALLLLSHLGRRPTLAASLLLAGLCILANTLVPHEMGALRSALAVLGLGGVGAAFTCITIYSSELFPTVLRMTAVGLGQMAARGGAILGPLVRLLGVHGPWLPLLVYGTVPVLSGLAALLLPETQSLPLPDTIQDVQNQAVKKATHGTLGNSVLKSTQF
# test: Inhibition of [14C] uric acid uptake by URAT1 in MDCK-URAT1 cells
# Assay type: cell-based
# run-parameters: MDCK-URAT1 cells, 100 μM [14C] uric acid, 37° C. 2 min, three experiments; read-out: level of IC50, uric acid uptake by URAT1, after three times experiments
outcome-measure: pIC50
Reminder that pIC50 is minus the log10 of a molar concentration.

[in] Please report the measured pIC50 for CCc1oc2cc(O)ccc2c1C(=O)c1cc(Br)c(O)c(Br)c1 [6-hydroxybenzbromarone] tested on URAT1 (Homo sapiens).
[out] 6.70

====

Kindly supply the reported AUC(0-t) values for the records listed here.
# test: Pharmacokinetic test of single dose in rats
# Assay type: in vivo
# run-parameters: rat, in vivo, po, single dose of 100 mg/kg, read-out: AUC0-24hr
I'd appreciate it if you wrote the number followed by its unit.

[in] Given CCc1oc2ccccc2c1C(=O)c1cc(Br)c(O)c(Br)c1 [benzbromarone] , respond with its AUC(0-t).
[out] 887 µg·h/mL

[in] Given CCc1oc2cc(O)ccc2c1C(=O)c1cc(Br)c(O)c(Br)c1 [6-hydroxybenzbromarone] , respond with its AUC(0-t).
[out] 291 µg·h/mL

====

# test: Pharmacokinetic test of single dose in rats
# Format: in vivo
# run-parameters: rat, in vivo, po, single dose of 100 mg/kg
Kindly supply the reported Cmax values for the records listed here.
Reply numerically in µg/mL, unit not repeated.

[in] Given CCc1oc2cc(O)ccc2c1C(=O)c1cc(Br)c(O)c(Br)c1 [6-hydroxybenzbromarone] , respond with its Cmax.
[out] 34.6

[in] Given CCc1oc2ccccc2c1C(=O)c1cc(Br)c(O)c(Br)c1 [benzbromarone] , respond with its Cmax.
[out] 90.2
